The measurements presented in this section are drawn from patent US10696642B2.

Molecular target: TEAD2 (Homo sapiens)
Construct: The cDNA encoding human TEAD2 (residues 217-447, TEAD2^217-447) was cloned into a pET29 vector; made in house; host or cells: E. coli BL21(DE3)-T1R
Sequence (Q15562 217-447): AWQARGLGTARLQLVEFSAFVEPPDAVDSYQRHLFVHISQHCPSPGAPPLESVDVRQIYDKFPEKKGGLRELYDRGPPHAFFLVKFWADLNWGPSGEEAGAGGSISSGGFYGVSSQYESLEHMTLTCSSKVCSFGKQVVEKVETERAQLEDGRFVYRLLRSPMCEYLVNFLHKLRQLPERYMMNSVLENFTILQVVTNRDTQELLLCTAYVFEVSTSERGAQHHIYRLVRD
Assay: In vitro palmitoylation assay to measure potency of TEAD palmitoylation inhibitors (Example 11)
Assay type: biochemical
Settings: compound at 5 μM, 3 μM alkyne palmitoyl-CoA, normalized to DMSO control
READOUT TYPE: inhibition at 5 µM (%)

As a guide, the following entries are already answered.
                                   compound        readout_type  quantity_unit  endpoint_result
0  Cc1cc(-c2ccc(NC(=O)CSc3nnc[nH]3)cc2)cc(C)n1  inhibition at 5 µM              %               95
1  Cc1nnc(SCCC(=O)Nc2cccc(C34CC5CC(CC(C5)C3)C4)c2)o1  inhibition at 5 µM              %               80
2  O=C(CSc1nnc(-c2ccc(Cl)cc2Cl)o1)Oc1ccc(C23CC4CC(CC(C4)C2)C3)cc1  inhibition at 5 µM              %               56
3  O=C(CSc1nnc[nH]1)Nc1ccc(C23CC4CC(CC(C4)C2)C3)cc1Br  inhibition at 5 µM              %               87
4  O=C(CSc1nnc[nH]1)Oc1ccc(C23CC4CC(CC(C4)C2)C3)cc1  inhibition at 5 µM              %               39
5  O=C(CSc1nnc[nH]1)Nc1ccc(-c2cc(-c3ccncc3)cc(-c3ccncc3)c2)cc1  inhibition at 5 µM              %               90
6  O=C(CSc1nnc[nH]1)Nc1ccc(-c2cc3ccccc3c3ccccc23)cc1  inhibition at 5 µM              %               56

(1) CCn1c(CN2CCOCC2)nnc1SCC(=O)Nc1ccc(C23CC4CC(CC(C4)C2)C3)cc1
(2) Nc1nncn1CC(=O)Nc1ccc(C23CC4CC(CC(C4)C2)C3)cc1 [drawing 55]
Larger number for inhibition at 5 µM: 1 , or 2 ? The response must carry the label of the picked entry.
2
